test system: MOLM14; test: cell viability relative to vehicle control; higher = less cytotoxic; conditions: 10 µM; SRSF2 genotype: SRSF2 P95H/wt;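 further: after 48 h exposure read by CellTiter-Glo luminescence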
readout_label: cell viability (%)
One number for each entry, in %.

- compound: "O=c1cc(-c2ccc(O[C@@H]3O[C@H](CO)[C@@H](O)[C@H](O)[C@H]3O)cc2)oc2cc(O)c([C@@H]3O[C@H](CO)[C@@H](O)[C@H](O)[C@H]3O[C@@H]3OC[C@H](O)[C@H](O)[C@H]3O)c(O)c12"
  cell viability (%): 92.3

Batch request: cell viability per item, same order as input.
1. CN1CCN(Cc2ccc(NC(=O)Nc3ccc(Oc4ccnc(N)n4)cc3)cc2C(F)(F)F)CC1
2. Oc1ncnc2[nH]ncc12 [Allopurinol (Zyloprim)]
3. Cn1c(=O)c2[nH]cnc2n(C)c1=O
4. CC(C)CCNc1ncccc1C(=O)N1CCN(Cc2ccccc2)CC1

a:
1: 1.79; 2: 99.3; 3: 86.8; 4: 96.9

For each of the items listed, what is its cell viability?
1. C=CCNC1=C2C[C@@H](C)C[C@H](OC)[C@H](O)[C@@H](C)/C=C(\C)[C@H](OC(N)=O)[C@@H](OC)/C=C\C=C(/C)C(=O)NC(=CC1=O)C2=O
2. CCCc1cc(C)[nH]c(=O)c1CNC(=O)c1cc(-c2ccc(N3CCN(C)CC3)nc2)nc2c1cnn2C(C)C

a:
1. 1.11
2. 55.9
